Tested on: COLO 205 colon
ASSAY_PROCEDURE: NCI tumour cell line growth inhibition, 48 h
MEASURE_NAME: log10(TGI) (log10 of the value in µM)
Note: values are log10 of TGI expressed in µM.

The compound listed as `COc1ccc2nc3cc(Cl)ccc3c(NCCCCCC(=O)NC(COc3ccc4ccc5cccnc5c4n3)COc3ccc4ccc5cccnc5c4n3)c2c1` shows log10(TGI) equal to 1.51

The compound listed as `COc1ccc(C=O)cc1OS(=O)(=O)C(F)(F)C(F)(F)C(F)(F)C(F)(F)F` shows log10(TGI) equal to 1.80

The compound listed as `CC1(C)[C@H]2Cc3cc4nc5ccccn5c4cc3[C@@H]1C2` shows log10(TGI) equal to 1.54

The compound listed as CC#CC#C/C=C1\C=CC2(OC=CC2O)O1 (configuration not stated) shows log10(TGI) equal to 0.83

The compound listed as `COCCCNc1c2ccccc2nc2ccccc12` shows log10(TGI) equal to 0.83

The compound listed as `CN(C)CC(C)(C)CN1c2ccccc2Sc2ccccc21` shows log10(TGI) equal to 1.40

The compound listed as `S=C(S)NCCN1CCNCC1` shows log10(TGI) equal to 1.64

The compound listed as `N=c1oc2cc(O)ccc2cc1C(=O)Nc1cccc2ccccc12` shows log10(TGI) equal to 1.54

The compound listed as `Cc1c(C(=O)c2ccccc2)[n+](=O)c2cc(F)c(F)cc2n1[O-]` shows log10(TGI) equal to 1.06

The compound listed as `O[C@@]12Cc3c([nH]c4ccccc34)[C@@H]3Oc4c(-c5ccccc5)ccc5c4[C@@]31CCN(CC1CC1)[C@@H]2C5` shows log10(TGI) equal to 0.52

More entries:
The compound listed as CC[As](CC)SCC1OC(OC(C)=O)C(OC(C)=O)C(OC(C)=O)C1OC(C)=O (configuration not stated) shows log10(TGI) equal to 1.00

---

Tested on: NCI/ADR-RES ovarian
ASSAY_PROCEDURE: NCI tumour cell line growth inhibition, 48 h
Here the recorded GI50 is given for each entry.

A selection of reference data follows.
The molecule listed as `CCOc1ccc2c(c1)C(=O)c1c-2n(CCCN=[N+]=[N-])c(=O)c2cc([N+](=O)[O-])ccc12` shows GI50 equal to 3.91 µM

The molecule listed as `COc1ccc(/C=C\c2cc(OC)c(OC)c(OC)c2)c(NS(=O)(=O)c2ccc(F)cc2)c1O` shows GI50 equal to 0.179 µM

The molecule listed as CCN(CC)CC(O)c1cc(-c2ccc(Cl)cc2)nc2c(C)c(Cl)ccc12 (centres undefined) shows GI50 equal to 1.71 µM

The molecule listed as `O=C(Nc1cccc(-n2cc(-c3ccncc3)c(-c3ccc(Cl)c(O)c3)n2)c1)Nc1ccc(Cl)c(Cl)c1` shows GI50 equal to 2.74 µM

The molecule listed as `COc1cc2c(cc1OCCCN1CCN(C(=S)SCCC(C#N)(c3ccccc3)c3ccccc3)CC1)N=C[C@@H]1CCCN1C2=O` shows GI50 equal to 3.69 µM

More entries:
The molecule listed as `Nc1cc(N)c2nc(NCCc3ccc(Cl)c(Cl)c3)cnc2c1` shows GI50 equal to 20.5 µM

The molecule listed as `Nc1c(C(=O)Nc2cccc(C(F)(F)F)c2)sc2nc3c(cc12)CCCCCC3` shows GI50 equal to 2.69 µM

The molecule listed as `Nc1ncnc2c1ccn2-c1cccc(NC(=O)c2ccc(N3CCOCC3)c(C(F)(F)F)c2)c1` shows GI50 equal to 2.93 µM

The molecule listed as Nc1n[nH]c2ccc([C@@H]3Nc4ccc5cn[nH]c5c4[C@H]4C5CCC(C5)[C@@H]34)cc12 (some centres undefined) shows GI50 equal to 0.887 µM
